Data origin, for the record: the supplement of paper PMC11208160

The entries below come with measured recombinant UMI read abundance (log10) values attached.
# MEASUREMENT_DESCRIPTION: recombinant UMI read abundance after kanamycin selection (control-corrected) (log10(CPM+1)); higher = more efficient recombination; extreme values may be limits of the assay; sequences stand for … in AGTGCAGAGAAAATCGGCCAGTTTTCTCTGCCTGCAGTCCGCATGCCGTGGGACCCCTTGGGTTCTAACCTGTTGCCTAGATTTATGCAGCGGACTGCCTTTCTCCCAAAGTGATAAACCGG…AGGTTGGTTTCACT; site = the 11-nt donor
OBSERVED_PROPERTY: recombinant UMI read abundance (log10)

RESIDUE_CODES: GAATGAGCATGGACCGGTTTTCCCGGTAATCCGTATTTGGG (site TAATGAGCTCC)
NUMERIC_RESULT: 0.317

RESIDUE_CODES: ATGGCTACATGGACCGGTTTTCCCGGTAATCCGTATTTGGG (site ATGGCTACTCC)
NUMERIC_RESULT: 0.356

RESIDUE_CODES: CCAGGTCCATGGACCGGTTTTCCCGGTAATCCGTATTTGAT (site CCAGGTGCTAT)
NUMERIC_RESULT: 0

RESIDUE_CODES: CGAGGGCCATGGACCGGTTTTCCCGGTAATCCGTATTTGGG (site CGAGGCCCTCC)
NUMERIC_RESULT: 0.0184

RESIDUE_CODES: GACGCCGCATGGACCGGTTTTCCCGGTAATCCGTATTTGGT (site GACGCCGCTAC)
NUMERIC_RESULT: 0.736

RESIDUE_CODES: TTAGAGACATGGACCGGTTTTCCCGGTAATCCGTATTTGCG (site TCAGAGACTCG)
NUMERIC_RESULT: 1.03

RESIDUE_CODES: TATAGTCCATGGACCGGTTTTCCCGGTAATCCGTATTTGTA (site TATAGTCCTTA)
NUMERIC_RESULT: 0.432

RESIDUE_CODES: GTCTGCACATGGACCGGTTTTCCCGGTAATCCGTATTTGTA (site GTATGCACTTA)
NUMERIC_RESULT: 0.0171

RESIDUE_CODES: CCCTGGCCATGGACCGGTTTTCCCGGTAATCCGTATTTGCC (site CCCTGGCCTGG)
NUMERIC_RESULT: 0

RESIDUE_CODES: TAGAAGACATGGACCGGTTTTCCCGGTAATCCGTATTTGCA (site TAGAAGACTTG)
NUMERIC_RESULT: 2.51

RESIDUE_CODES: ACTGGAGCATGGACCGGTTTTCCCGGTAATCCGTATTTGCT (site ACTGGAGCTAG)
NUMERIC_RESULT: 1.86

RESIDUE_CODES: CTGTTTACATGGACCGGTTTTCCCGGTAATCCGTATTTGCT (site CAGTTTACTAG)
NUMERIC_RESULT: 0.405

RESIDUE_CODES: CAAGCAGCATGGACCGGTTTTCCCGGTAATCCGTATTTGCT (site CAAGGAGCTAG)
NUMERIC_RESULT: 0

RESIDUE_CODES: CTAGTTACATGGACCGGTTTTCCCGGTAATCCGTATTTGTC (site CTAGTTACTGA)
NUMERIC_RESULT: 2.57

RESIDUE_CODES: AGGCTAGCATGGACCGGTTTTCCCGGTAATCCGTATTTGTT (site AGTCTAGCTAA)
NUMERIC_RESULT: 0.0182

RESIDUE_CODES: CACGTGGCATGGACCGGTTTTCCCGGTAATCCGTATTTGGA (site CACATGGCTTC)
NUMERIC_RESULT: 0.429

RESIDUE_CODES: AGTTGTGCATGGACCGGTTTTCCCGGTAATCCGTATTTGAA (site AGTTGTGCTTT)
NUMERIC_RESULT: 0.535

RESIDUE_CODES: TACGAATCATGGACCGGTTTTCCCGGTAATCCGTATTTGCG (site TATGAATCTCG)
NUMERIC_RESULT: 2.1

RESIDUE_CODES: TGAGGACCATGGACCGGTTTTCCCGGTAATCCGTATTTGGG (site AGAGGACCTCC)
NUMERIC_RESULT: 0.0068

RESIDUE_CODES: CCCAACCCATGGACCGGTTTTCCCGGTAATCCGTATTTGAT (site CCCAACCCTAT)
NUMERIC_RESULT: 0.00723

RESIDUE_CODES: ACACATCCATGGACCGGTTTTCCCGGTAATCCGTATTTGCC (site ACACATCCTGT)
NUMERIC_RESULT: 0

RESIDUE_CODES: CGCGGACCATGGACCGGTTTTCCCGGTAATCCGTATTTGGG (site CGAGGACCTCC)
NUMERIC_RESULT: 0.0232

RESIDUE_CODES: ACGGCGTCATGGACCGGTTTTCCCGGTAATCCGTATTTGGT (site ACGGCGTCTAC)
NUMERIC_RESULT: 2.01

----------
# MEASUREMENT_DESCRIPTION: recombinant UMI read abundance after kanamycin selection (control-corrected) (log10(CPM+1)); higher = more efficient recombination; extreme values may be limits of the assay; sequences stand for … in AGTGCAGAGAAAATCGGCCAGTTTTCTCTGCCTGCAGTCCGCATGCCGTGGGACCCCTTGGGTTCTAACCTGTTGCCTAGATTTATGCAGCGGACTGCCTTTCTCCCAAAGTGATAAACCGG…AGGTTGGTTTCACT; site = the 11-nt donor
Readings of recombinant UMI read abundance (log10) for the listed sequences

RESIDUE_CODES: ATGCCATCATGGACCGGTTTTCCCGGTAATCCGTATTTGCA (site ATGCCATCTTG)
recombinant UMI read abundance (log10): 1.98
--
RESIDUE_CODES: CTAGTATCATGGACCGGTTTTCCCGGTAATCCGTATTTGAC (site CTAGTATCTAT)
recombinant UMI read abundance (log10): 2.78
--
RESIDUE_CODES: GGATGATCATGGACCGGTTTTCCCGGTAATCCGTATTTGCT (site GGATGATCTAG)
recombinant UMI read abundance (log10): 2.36
--
RESIDUE_CODES: CAATTCGCATGGACCGGTTTTCCCGGTAATCCGTATTTGCT (site CAATTCTCTAG)
recombinant UMI read abundance (log10): 0
--
RESIDUE_CODES: AGCCAAACATGGACCGGTTTTCCCGGTAATCCGTATTTGAG (site AGCCAAACTCT)
recombinant UMI read abundance (log10): 1.88
--
RESIDUE_CODES: ATCTATACATGGACCGGTTTTCCCGGTAATCCGTATTTGAA (site ATCTATACTGT)
recombinant UMI read abundance (log10): 0
--
RESIDUE_CODES: CAGATAACATGGACCGGTTTTCCCGGTAATCCGTATTTGGG (site CAGATAACTCC)
recombinant UMI read abundance (log10): 1.1
--
RESIDUE_CODES: TTAGCTGCATGGACCGGTTTTCCCGGTAATCCGTATTTGTG (site TTAGCAGCTCA)
recombinant UMI read abundance (log10): 0.00587
--
RESIDUE_CODES: CGGGAACCATGGACCGGTTTTCCCGGTAATCCGTATTTGGT (site CGGGAACCTAA)
recombinant UMI read abundance (log10): 0.0297
--
RESIDUE_CODES: CGCTGTACATGGACCGGTTTTCCCGGTAATCCGTATTTGCT (site CGCAGTACTAG)
recombinant UMI read abundance (log10): 0

----------
recombinant barcode read abundance (log10) for assorted sequences
# MEASUREMENT_DESCRIPTION: recombinant barcode read abundance after kanamycin selection (control-corrected) (log10(CPM+1)); higher = more efficient recombination; sequences stand for … in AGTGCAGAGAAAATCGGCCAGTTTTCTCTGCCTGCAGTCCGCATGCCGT…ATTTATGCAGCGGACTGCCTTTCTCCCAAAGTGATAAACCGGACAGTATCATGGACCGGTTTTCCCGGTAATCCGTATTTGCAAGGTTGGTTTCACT; site = the 11-nt target
OBSERVED_PROPERTY: recombinant barcode read abundance (log10)

RESIDUE_CODES: GAGTCCATATGGGTTCTAACCTGTTGCGTAG [GAGTCCACTAC_LTGcore_TA_RTGcore_CT] (site GAGTCCACTAC) (LTG core: TA, RTG core: CT)
NUMERIC_RESULT: 0.0591

RESIDUE_CODES: TAAGAATGCTGGGTTCTAACCTGTTGCCTAG [TAAGAATCTAG_LTGcore_GC_RTGcore_CT] (site TAAGAATCTAG) (LTG core: GC, RTG core: CT)
NUMERIC_RESULT: 0.216

RESIDUE_CODES: TAGAGGGGATGGGTTCTAACCTGTTGCGGTC [TAGAGGGCTCC_LTGcore_GA_RTGcore_GA] (site TAGAGGGCTCC) (LTG core: GA, RTG core: GA)
NUMERIC_RESULT: 0.0627

RESIDUE_CODES: TTATAAATCTGGGTTCTAACCTGTTGCCTGA [TTATAAACTAG_LTGcore_TC_RTGcore_TC] (site TTATAAACTAG) (LTG core: TC, RTG core: TC)
NUMERIC_RESULT: 0.244

RESIDUE_CODES: GGTGCCCGGTGGGTTCTAACCTGTTGCCGAG [GGTGCCCCTCG_LTGcore_GG_RTGcore_CT] (site GGTGCCCCTCG) (LTG core: GG, RTG core: CT)
NUMERIC_RESULT: 0.0774

RESIDUE_CODES: GGTGCCCTCTGGGTTCTAACCTGTTGCCGGA [GGTGCCCCTCG_LTGcore_TC_RTGcore_TC] (site GGTGCCCCTCG) (LTG core: TC, RTG core: TC)
NUMERIC_RESULT: 0.0162

RESIDUE_CODES: AAACATGCCTGGGTTCTAACCTGTTGCCTGG [AAACATGCTAG_LTGcore_CC_RTGcore_CC] (site AAACATGCTAG) (LTG core: CC, RTG core: CC)
NUMERIC_RESULT: 0.107
